These measurements were taken from the supplement of paper PMC7840683.

system: HepaRG; assay: LDH release cytotoxicity, % of total lysis control; higher = more cytotoxic; settings: 0.3162278 µM; 48 h
measured_endpoint: LDH release cytotoxicity (%)
Give just the number in %; leave the unit off.

A selection of reference data follows.
molecule="COCC(C)OCC(C)OCC(C)O (stereo not drawn)" target=HepaRG unit_annotation=% result_value=-2.65
molecule=O=C(O)CCCOc1ccc(Cl)cc1Cl target=HepaRG unit_annotation=% result_value=-1.77

Could you now consider this next molecule?
Would you kindly share the measured LDH release cytotoxicity for CCCOC(=O)c1ccc(O)cc1 ?
-0.664

----------
As shown below, each of these compounds has a reported LDH release cytotoxicity value.
test system: HepaRG; assay: LDH release cytotoxicity, % of total lysis control; higher = more cytotoxic; details: 0.1 µM; 48 h
Give just the number in %; leave the unit off.

A selection of reference data follows.
compound="CN(C)C(=O)Cl [Dimethylcarbamoyl chloride]" result_value=-0.716
compound=O=C(CCl)c1ccccc1 result_value=-0.706
compound=OCCC(F)(F)C(F)(F)C(F)(F)C(F)(F)C(F)(F)C(F)(F)C(F)(F)C(F)(F)F result_value=-0.0838
compound="ClC1=C(Cl)C2(Cl)C3C4CC(C5OC45)C3C1(Cl)C2(Cl)Cl (stereo not drawn) [Dieldrin]" result_value=-1.67
compound="C=CCC1=C(C)C(OC(=O)C2C(C=C(C)C)C2(C)C)CC1=O (stereo not drawn)" result_value=-0.919

Would you kindly share the measured LDH release cytotoxicity for Cc1ccccc1Cl ?
-1.94

Would you kindly share the measured LDH release cytotoxicity for COC(=O)CCCC(=O)OC [Dimethyl glutarate] ?
-1.35

Would you kindly share the measured LDH release cytotoxicity for Nc1ccc(S(=O)(=O)c2ccc(N)cc2)cc1 ?
-0.379

----------
As shown below, each of these molecules has a reported LDH release cytotoxicity value.
system: HepaRG; assay: LDH release cytotoxicity, % of total lysis control; higher = more cytotoxic; details: 31.6228 µM; 48 h
Structures can show the parent of a compound that is named as a salt.
Give just the number in %; leave the unit off.

A selection of reference data follows.
molecule=NC(=O)N=NCc1ccc([N+](=O)[O-])o1 result_value=-0.997
molecule=O=C(NC(=O)c1c(F)cccc1F)Nc1cc(Cl)c(OC(F)(F)C(F)F)c(Cl)c1 result_value=-0.129
molecule="Cc1ccccc1COC1CC2(C(C)C)CCC1(C)O2 (centres undefined)" result_value=-0.668
molecule="OCC1CO1 (centres undefined)" result_value=-0.342
molecule="CN(C)C1C(=O)C(C(N)=O)C(=O)C2(O)C(=O)C3C(=O)c4c(O)cccc4C(C)(O)C3C(O)C12 (centres undefined) [Oxytetracycline dihydrate]" result_value=-3.27
molecule="CC[C@H](C)C1O[C@]2(C=C[C@@H]1C)C[C@@H]1C[C@@H](C/C=C(\\C)[C@@H](O[C@H]3C[C@H](OC)[C@@H](O[C@H]4C[C@H](OC)[C@H](NC)[C@H](C)O4)[C@H](C)O3)[C@@H](C)/C=C/C=C3\\CO[C@@H]4[C@H](O)C(C)=C[C@@H](C(=O)O1)[C@]34O)O2 (some centres undefined) [Emamectin benzoate]" result_value=83.4

Could you now consider this next molecule?
Would you kindly share the measured LDH release cytotoxicity for CCc1cc(C2=C(C(=O)O)N(c3ccccc3C(F)(F)F)S(=O)(=O)c3ccccc32)cc2c1OCO2 [Fandosentan potassium salt] ?
2.28

----------
As shown below, each of these molecules has a reported LDH release cytotoxicity value.
test system: HepaRG; experiment: LDH release cytotoxicity, % of total lysis control; higher = more cytotoxic; settings: 3.16228 µM; 48 h
Give just the number in %; leave the unit off.

molecule="O=c1[nH]c2ccc(S(=O)CCN3CCC(Cc4ccc(F)cc4)CC3)cc2o1 (stereo not given)" measured_endpoint="LDH release cytotoxicity" result_value=-0.767
molecule="CCOC1Oc2ccc(OS(C)(=O)=O)cc2C1(C)C (stereo not given) [Ethofumesate]" measured_endpoint="LDH release cytotoxicity" result_value=-2.65
molecule="O=c1n(CC2CO2)c(=O)n(CC2CO2)c(=O)n1CC1CO1 (stereo not given) [Tris(2,3-epoxypropyl)isocyanurate]" measured_endpoint="LDH release cytotoxicity" result_value=-0.576
molecule=CCCCCCCCN(C)CCCCCCCC measured_endpoint="LDH release cytotoxicity" result_value=-0.708
molecule=CCCN(CCC)N=O measured_endpoint="LDH release cytotoxicity" result_value=-1.47
molecule=CCCCCCCCCCCCO measured_endpoint="LDH release cytotoxicity" result_value=-2.27
molecule="CNC(=O)CSP(=S)(OC)OC [Dimethoate]" measured_endpoint="LDH release cytotoxicity" result_value=-0.679
molecule="Cc1cn(C2CC(N=[N+]=[N-])C(CO)O2)c(=O)nc1O (stereo not given)" measured_endpoint="LDH release cytotoxicity" result_value=-0.57

Would you kindly share the measured LDH release cytotoxicity for C#CC1(O)CCC2C3CCC4=CC(=O)CCC4C3CCC21C (stereo not given) ?
0.727

Would you kindly share the measured LDH release cytotoxicity for CCc1cccc(C)c1N(C(=O)CCl)C(C)COC (stereo not given) ?
-1.33

Would you kindly share the measured LDH release cytotoxicity for CNC(=O)ON=CC(C)(C)SC ?
-1.69

Would you kindly share the measured LDH release cytotoxicity for CC(C)C(=O)Nc1ccc([N+](=O)[O-])c(C(F)(F)F)c1 [Flutamide] ?
-1.23

Would you kindly share the measured LDH release cytotoxicity for CC(C)COC(=O)CCCCC(=O)OCC(C)C [Diisobutyl adipate] ?
-2.38

----------
test system: HepaRG; assay: LDH release cytotoxicity, % of total lysis control; higher = more cytotoxic; conditions: 0.03162 µM; 48 h
measured_endpoint: LDH release cytotoxicity (%)
Give just the number in %; leave the unit off.

compound="CCCCCCc1ccc(O)cc1O [4-Hexylresorcinol]" measured_endpoint="LDH release cytotoxicity" result_value=-1.87
compound="CC(C)N1C(=O)N(c2ccccc2)CSC1=NC(C)(C)C [Buprofezin]" measured_endpoint="LDH release cytotoxicity" result_value=-1.37
compound="C#CC(C)(C)NC(=O)c1cc(Cl)cc(Cl)c1 [Propyzamide]" measured_endpoint="LDH release cytotoxicity" result_value=-1.48
compound="CCCN(CCC)c1c([N+](=O)[O-])cc(C(F)(F)F)c(N)c1[N+](=O)[O-] [Prodiamine]" measured_endpoint="LDH release cytotoxicity" result_value=-2.33

Lookup: LDH release cytotoxicity / HepaRG / CCCOc1nn(C(=O)NS(=O)(=O)c2ccccc2C(=O)OC)c(=O)n1C [Propoxycarbazone-sodium]
0.284

Lookup: LDH release cytotoxicity / HepaRG / O=C(O)C1(C(=O)Nc2ccc(Cl)cc2Cl)CC1 [Cyclanilide]
0.835

Lookup: LDH release cytotoxicity / HepaRG / CNC(=O)Oc1cccc2ccccc12 [Carbaryl]
-0.447

Lookup: LDH release cytotoxicity / HepaRG / CCOC(=O)CC(SP(=S)(OC)OC)C(=O)OCC (centres undefined) [Malathion]
0.138

Lookup: LDH release cytotoxicity / HepaRG / C=C(C)C1Cc2c(ccc3c2OC2COc4cc(OC)c(OC)cc4C2C3=O)O1 (centres undefined) [Rotenone]
-3.41

Lookup: LDH release cytotoxicity / HepaRG / c1ccc2[nH]c(-c3cscn3)nc2c1 [Thiabendazole]
-1.05

----------
tested on: HepaRG; assay: LDH release cytotoxicity, % of total lysis control; higher = more cytotoxic; details: 10 µM; 48 h
As shown below, each of these compounds has a reported LDH release cytotoxicity value.
Give just the number in %; leave the unit off.

A selection of reference data follows.
compound=CCC(C)(C)C(=O)OC1=C(c2ccc(Cl)cc2Cl)C(=O)OC12CCCCC2 result_value=0.0779
compound=O=c1ccc2ccccc2o1 result_value=-2.38
compound="COc1cc(C=O)cc2c1C(COC(N)=O)C1(OC(C)=O)ON2CC2C1N2C(C)=O (centres undefined)" result_value=67.8
compound=CC(C)CCCCCCCOC(=O)c1ccccc1C(=O)OCCCCCCCC(C)C result_value=-0.985
compound="CNC1CCC(c2ccc(Cl)c(Cl)c2)c2ccc(S(N)(=O)=O)cc21 (centres undefined)" result_value=-0.337

Would you kindly share the measured LDH release cytotoxicity for CC(=O)c1ccccc1 ?
-1.71

Would you kindly share the measured LDH release cytotoxicity for Cc1ccc(-c2cc(C(F)(F)F)nn2-c2ccc(S(N)(=O)=O)cc2)cc1 ?
-0.583

Would you kindly share the measured LDH release cytotoxicity for CC(C)c1cccc(C(C)C)c1NC(=O)NS(=O)(=O)c1cc(C(C)(C)O)co1 ?
-1.29

Would you kindly share the measured LDH release cytotoxicity for CC(C)(c1ccc(O)cc1)c1ccc(O)cc1 ?
0.439

----------
tested on: HepaRG; assay: LDH release cytotoxicity, % of total lysis control; higher = more cytotoxic; settings: 10 µM; 48 h
measured_endpoint: LDH release cytotoxicity (%)
Give just the number in %; leave the unit off.

A selection of reference data follows.
compound=O=S1(=O)CCCO1 target=HepaRG measured_endpoint="LDH release cytotoxicity" result_value=-1.53
compound=CCc1ccc(O)c(C(C)(C)C)c1 target=HepaRG measured_endpoint="LDH release cytotoxicity" result_value=0.529
compound=O=C(NC(=O)c1c(F)cccc1F)Nc1cc(Cl)c(OC(F)(F)C(F)F)c(Cl)c1 target=HepaRG measured_endpoint="LDH release cytotoxicity" result_value=-0.349
compound=Cc1ccc(C)c(C)c1 target=HepaRG measured_endpoint="LDH release cytotoxicity" result_value=-0.854
compound="OC12N=C(c3ccccc3)SC1Cc1cc(Cl)ccc12 (configuration not stated)" target=HepaRG measured_endpoint="LDH release cytotoxicity" result_value=4.43
compound="ClC(Cl)(Cl)c1ccccc1 [Benzotrichloride]" target=HepaRG measured_endpoint="LDH release cytotoxicity" result_value=-2.01
compound=Clc1ccc(Cl)c(Cl)c1 target=HepaRG measured_endpoint="LDH release cytotoxicity" result_value=-0.626
compound=O=C(O)COc1ccc(Cl)cc1Cl target=HepaRG measured_endpoint="LDH release cytotoxicity" result_value=-3.79

Would you kindly share the measured LDH release cytotoxicity for O=[N+]([O-])c1ccc(O)cc1 ?
-1.26

Would you kindly share the measured LDH release cytotoxicity for CCCCN(CCCC)N=O ?
-1.2

Would you kindly share the measured LDH release cytotoxicity for c1ccc2[nH]nnc2c1 ?
-0.765

Would you kindly share the measured LDH release cytotoxicity for ClC1=C(Cl)C2(Cl)C3C4CC(C5OC45)C3C1(Cl)C2(Cl)Cl (configuration not stated) ?
-0.0152

Would you kindly share the measured LDH release cytotoxicity for COP(=S)(OC)Oc1ccc(SC)c(C)c1 ?
0.173

Would you kindly share the measured LDH release cytotoxicity for CCCCCCC(C)OC(=O)COc1nc(F)c(Cl)c(N)c1Cl (configuration not stated) ?
8.36

Would you kindly share the measured LDH release cytotoxicity for COc1ccccc1N ?
0.222

Would you kindly share the measured LDH release cytotoxicity for CC(C)(C)C(O)C(Cc1ccc(Cl)cc1)n1cncn1 (configuration not stated) ?
-1.1

Would you kindly share the measured LDH release cytotoxicity for N#CC1CC(F)(F)CN1C(=O)CNC1CC2CCC(C1)N2c1ncccn1 (configuration not stated) ?
-1.96
